Molecular target: Glutamate receptors; NMDA/AMPA
Test: In vitro binding affinity to the AMPA receptor using [3H]AMPA binding assay
Kindly supply the reported IC50 values for the records listed here.

Challenge: For the compound "CN1CCN(Cc2cc3nc(O)c(O)nc3cc2[N+](=O)[O-])CC1" , give its measured IC50 value.
Response given: 3400 nM

Challenge: For the compound "O=[N+]([O-])c1cc2nc(O)c(O)nc2cc1CN1CC=CCC1" , give its measured IC50 value.
Response given: 360 nM

Challenge: For the compound "O=[N+]([O-])c1cc2nc(O)c(O)nc2cc1CN1CCC1" , give its measured IC50 value.
Response given: 1500 nM

Challenge: For the compound O=[N+]([O-])c1cc2nc(O)c(O)nc2cc1CN1CCCC(O)C1 (configuration not stated) , give its measured IC50 value.
Response given: 430 nM

Challenge: For the compound O=[N+]([O-])c1cc2nc(O)c(O)nc2cc1CN1CCCC(CO)C1 (configuration not stated) , give its measured IC50 value.
Response given: 520 nM

Challenge: For the compound "O=C(O)[C@H]1CCCN1Cc1cc2nc(O)c(O)nc2cc1[N+](=O)[O-]" , give its measured IC50 value.
Response given: 460 nM

Challenge: For the compound "O=C(O)C1(c2ccccc2)CCN(Cc2cc3nc(O)c(O)nc3cc2[N+](=O)[O-])CC1" , give its measured IC50 value.
Response given: 2000 nM

Challenge: For the compound "O=C(O)C1CCN(Cc2cc3nc(O)c(O)nc3cc2Br)CC1" , give its measured IC50 value.
Response given: 890 nM

Challenge: For the compound "CCN(CC)Cc1cc2nc(O)c(O)nc2cc1[N+](=O)[O-]" , give its measured IC50 value.
Response given: 840 nM

Challenge: For the compound "O=[N+]([O-])c1cc2nc(O)c(O)nc2cc1CN1CCC(c2ccccc2)CC1" , give its measured IC50 value.
Response given: 430 nM

Challenge: For the compound "Br.O=[N+]([O-])c1cc2nc(O)c(O)nc2cc1CN1CCCC1" , give its measured IC50 value.
Response given: 280 nM

Challenge: For the compound "Br.O=[N+]([O-])c1cc2nc(O)c(O)nc2cc1CN1CC=CC1" , give its measured IC50 value.
Response given: 490 nM

Challenge: For the compound Br.O=[N+]([O-])c1cc2nc(O)c(O)nc2cc1CN1CCC(O)C1 (configuration not stated) , give its measured IC50 value.
Response given: 330 nM

Challenge: For the compound "Br.CC1CCN(Cc2cc3nc(O)c(O)nc3cc2[N+](=O)[O-])CC1" , give its measured IC50 value.
Response given: 370 nM

Challenge: For the compound "O=C(O)[C@H]1[C@H](O)CCN1Cc1cc2nc(O)c(O)nc2cc1[N+](=O)[O-]" , give its measured IC50 value.
Response given: 2100 nM

Challenge: For the compound "NC(=O)C1CCN(Cc2cc3nc(O)c(O)nc3cc2[N+](=O)[O-])CC1" , give its measured IC50 value.
Response given: 760 nM

Challenge: For the compound "O=[N+]([O-])c1cc2nc(O)c(O)nc2cc1CN1CCCCC1" , give its measured IC50 value.
Response given: 290 nM

----------
Assay: Tested for solubility in water at pH 7.4
Type: ADME
Parameter Measured: solubility (µg/mL)
I only need the number, in µg/mL, no unit after it.

Challenge: For the molecule "Br.O=C(O)C1CCN(Cc2cc3nc(O)c(O)nc3cc2[N+](=O)[O-])CC1" , give its measured solubility value.
Response given: 1680

----------
Kindly supply the reported pIC50 values for the records listed here.
Target: Glutamate receptor ionotropic, NMDA 1 (Rattus norvegicus)
Test: Tested for in vitro binding affinity against glycine-bining site of NMDA receptor using [3H]MDL-105519 binding assay
Note on pIC50: it is the negative log10 of concentration, concentration in mol/L.

Challenge: For the compound "Br.O=C(O)C1CCN(Cc2cc3nc(O)c(O)nc3cc2[N+](=O)[O-])CC1" , give its measured pIC50 value.
Response given: 5.41

Challenge: For the compound O=C(O)C1CCCCN1Cc1cc2[nH]c(=O)c(=O)[nH]c2cc1Br (stereo not given) , give its measured pIC50 value.
Response given: 6.08

Challenge: For the compound "O=[N+]([O-])c1cc2nc(O)c(O)nc2cc1CN1CCC1" , give its measured pIC50 value.
Response given: 5.42

Challenge: For the compound "O=[N+]([O-])c1cc2nc(O)c(O)nc2cc1CN1CCC(c2ccccc2)CC1" , give its measured pIC50 value.
Response given: 6.48

Challenge: For the compound "CCOC(=O)C1CCN(Cc2cc3nc(O)c(O)nc3cc2[N+](=O)[O-])CC1" , give its measured pIC50 value.
Response given: 6.23

----------
Target: Glutamate receptors; NMDA/AMPA
Test: In vitro binding affinity to the AMPA receptor using [3H]AMPA binding assay
Parameter Measured: pIC50
Note on pIC50: it is the negative log10 of concentration, concentration in mol/L.

Challenge: For the molecule "O=[N+]([O-])c1cc2nc(O)c(O)nc2cc1CN1CCOCC1" , give its measured pIC50 value.
Response given: 6.18

Challenge: For the molecule O=C(O)C1CCCN(Cc2cc3nc(O)c(O)nc3cc2Br)C1 (stereo unspecified) , give its measured pIC50 value.
Response given: 5.60

Challenge: For the molecule "O=[N+]([O-])c1cc2nc(O)c(O)nc2cc1CN1CCNCC1" , give its measured pIC50 value.
Response given: 4.96

Challenge: For the molecule "CCOC(=O)C1CCN(Cc2cc3nc(O)c(O)nc3cc2[N+](=O)[O-])CC1" , give its measured pIC50 value.
Response given: 6.46

Challenge: For the molecule O=[N+]([O-])c1cc2nc(O)c(O)nc2cc1CN1CCCC1CO (stereo unspecified) , give its measured pIC50 value.
Response given: 6.15

Challenge: For the molecule "Br.O=C(O)C1CCN(Cc2cc3nc(O)c(O)nc3cc2[N+](=O)[O-])CC1" , give its measured pIC50 value.
Response given: 7.15

Challenge: For the molecule "COC1CCN(Cc2cc3nc(O)c(O)nc3cc2[N+](=O)[O-])CC1" , give its measured pIC50 value.
Response given: 6.37

Challenge: For the molecule "O=[N+]([O-])c1cc2nc(O)c(O)nc2cc1CN1CCC(O)CC1" , give its measured pIC50 value.
Response given: 6.51

Challenge: For the molecule "O=[N+]([O-])c1cc2nc(O)c(O)nc2cc1CN1CCCCCC1" , give its measured pIC50 value.
Response given: 6.24

Challenge: For the molecule CC1CCCN(Cc2cc3nc(O)c(O)nc3cc2[N+](=O)[O-])C1 (stereo unspecified) , give its measured pIC50 value.
Response given: 6.22

Challenge: For the molecule CC1CN1Cc1cc2nc(O)c(O)nc2cc1[N+](=O)[O-] (stereo unspecified) , give its measured pIC50 value.
Response given: 5.66
